We begin with a simple list: items and their reported % Larval mortality.
- Test system: Diabrotica balteata (Corn Rootworm)
- testProtocol: Diabrotica balteata seed treatment test, larval mortality
- Format: in vivo
- assaySetup: treated corn seeds, 1 mg/seed, L3 larvae, 6 days incubation
Just the number please, in %, no unit attached.

Answered examples (5):
compound | measurementTarget | % Larval mortality / %
CCN1OCC(NC(=O)c2ccc(C3=NCC(c4cc(Cl)c(Cl)c(Cl)c4)(C(F)(F)F)C3)cc2C)C1=O (racemic) | Diabrotica balteata (Corn Rootworm) | 100
Cc1cc(C2=NO[C@@](c3cc(Cl)cc(Cl)c3)(C(F)(F)F)C2)ccc1C(=O)N[C@@H]1CON(CC(F)(F)F)C1=O | Diabrotica balteata (Corn Rootworm) | 100
Cc1cc(C2=NCC(c3cc(Cl)cc(Cl)c3)(C(F)(F)F)C2)ccc1C(=O)NC1CON(CC(F)(F)F)C1=O (stereo not drawn) | Diabrotica balteata (Corn Rootworm) | 100
CCN1OCC(NC(=O)c2ccc(C3=NCC(c4cc(Cl)cc(Cl)c4)(C(F)(F)F)C3)cc2C)C1=O (stereo not drawn) | Diabrotica balteata (Corn Rootworm) | 50
CCN1OC[C@@H](NC(=O)c2ccc(C3=NO[C@@](c4cc(Cl)c(Cl)c(Cl)c4)(C(F)(F)F)C3)cc2C)C1=O | Diabrotica balteata (Corn Rootworm) | 100

// below: % Larval mortality requested for another compound
What value of % Larval mortality has been reported for the following compound? CCN1OCC(NC(=O)c2ccc(C3=NOC(c4cc(Cl)c(Cl)c(Cl)c4)(C(F)(F)F)C3)cc2C)C1=O (mixture of isomers)
100

----------
- Tested on: Diabrotica balteata (Corn Rootworm)
- testProtocol: Diabrotica balteata seed treatment test, larval mortality
- Assay type: in vivo
- assaySetup: treated corn seeds, 0.3 mg/seed, L3 larvae, 6 days incubation
measurementLabel: % Larval mortality
Answer shape: numeric part, then the unit.

molecule | measurementTarget | % Larval mortality
CCN1OCC(NC(=O)c2ccc(C3=NOC(c4cc(Cl)c(F)c(Cl)c4)(C(F)(F)F)C3)cc2C)C1=O (mixture of isomers) | Diabrotica balteata (Corn Rootworm) | 96%
CCN1OCC(NC(=O)c2ccc(C3=NOC(c4cc(C(F)(F)F)c(Cl)c(C(F)(F)F)c4)(C(F)(F)F)C3)cc2C)C1=O (mixture of isomers) | Diabrotica balteata (Corn Rootworm) | 100%
Cc1cc(C2=NOC(c3cc(Cl)cc(Cl)c3)(C(F)(F)F)C2)ccc1C(=O)NC1CON(CC(F)(F)F)C1=O (mixture of isomers) | Diabrotica balteata (Corn Rootworm) | 79%
Cc1cc(C2=NOC(c3cc(Cl)cc(Cl)c3)(C(F)(F)F)C2)ccc1C(=O)NC1CON(CC(F)F)C1=O (mixture of isomers) | Diabrotica balteata (Corn Rootworm) | 87%
Cc1cc(C2=NOC(c3cc(Cl)cc(Cl)c3)(C(F)(F)F)C2)ccc1C(=O)NC1CON(C)C1=O (mixture of isomers) | Diabrotica balteata (Corn Rootworm) | 96%

Provide the documented % Larval mortality with Diabrotica balteata (Corn Rootworm) as the system for Cc1cc(N2CCC(c3cc(Cl)cc(Cl)c3)(C(F)(F)F)C2)ccc1C(=O)NC1CON(CC(F)(F)F)C1=O (racemic) [Compound D1]
83%

Provide the documented % Larval mortality with Diabrotica balteata (Corn Rootworm) as the system for `CCN1OC[C@@H](NC(=O)c2ccc(C3=NO[C@@](c4cc(Cl)c(F)c(Cl)c4)(C(F)(F)F)C3)cc2C)C1=O`
96%

Provide the documented % Larval mortality with Diabrotica balteata (Corn Rootworm) as the system for `CCN1OC[C@@H](NC(=O)c2ccc(C3=NO[C@@](c4cc(Cl)cc(C(F)(F)F)c4)(C(F)(F)F)C3)cc2C)C1=O`
88%

Provide the documented % Larval mortality with Diabrotica balteata (Corn Rootworm) as the system for Cc1cc(C2=NOC(c3cc(Cl)c(Cl)c(Cl)c3)(C(F)(F)F)C2)ccc1C(=O)NC1CON(CC(F)(F)F)C1=O (mixture of isomers)
87%

meta.source: patent US9661850B2
